So I've got a bunch of sequences here, and I need their seed-corrected z-score values.
Measurement protocol: Identification of proteins required for the processing of the EWS-FLI1 nascent transcript;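 further: robust z of luciferase light less the median z of siRNAs with the same seed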
Condition summary: TC32 Ewing sarcoma NR0B1-luc vs CMV-luc (EWS-FLI1 target promoter against control promoter), 48 h; screened at 20 nM (by protocol)
In all, about 59,000 sequences were measured (the read-out: median about -0.00055, lowest 2% from about -2 on). Only a selection was taken, and the lowest values are over-represented in it overall.
Answers are plain numbers.

Sample answers from the record:
GET /values?readout=seed-corrected z-score&item= AAUGGUAGAACAUCCCUGC against RIN2 -0.24

Returns the measured seed-corrected z-score for the input sequence. Input: UAGGGUUGGACUUUUUGUC against CYB5R3 0.597

Item under review: UCUGUGGUGAUGAACACUC against OR5J2 . Reported seed-corrected z-score? -1.13

Any idea what seed-corrected z-score was measured for AUCGGUCACAAAUUGUGGG against ABCE1 ? -2.31

Form field: reported seed-corrected z-score of UCUUAGACCCUGGAGGUGG against TBRG4 -0.178

Entry UCACGGUCAACAAAGUAGG against BRINP1 has what seed-corrected z-score? -2.87

Which seed-corrected z-score is reported for this sequence? AACCGAACAAAUGAAUAUC against TIA1 -1.17

May I ask what seed-corrected z-score has been recorded for UAUGUAUCUACCCAUCCGC against ATG3 ? -1.27

For every item in the list below, what is its measured seed-corrected z-score?
1. AAACUCAUCACUCCAGUAC against PARP12
2. UGCAUGAUGAGUGAGGUGC against CYP26B1
3. UCCUUUAGAACUCUCGAUC against WIPF3
4. UCCGGAAUGUCGAUGCCCU against DUX5
5. UGCAUAGACAAGGCAGUCG against ZNRF2

1: 0.00618; 2: -0.927; 3: 0.233; 4: -0.471; 5: -2.35
